Cited source: ChEMBL document CHEMBL3885881

species on record: Rattus norvegicus; test: DrugMatrix - Regimen: Daily Repeat; type: toxicity, organism-based, Sprague-Dawley; set-up: regimen Daily Repeat, gender Male, age 6-8 weeks; conditions: in vivo, po, 0 mg/kg, 72 h, tissue Blood, route oral GAVAGE, dose level Control, time 3 day, vehicle .5 % CMC
Result type: LEUKOCYTE COUNT (x10E3/uL)

Molecule	Unit info	Readout number
CCOC(=O)OC(C)OC1=C(C(=O)Nc2ccccn2)N(C)S(=O)(=O)c2ccccc21 (centres undefined)	x10E3/uL	11.93
O=c1[nH]cc(F)c(=O)[nH]1	x10E3/uL	11.5
C=C1CC[C@H](O)C/C1=C/C=C1\CCC[C@]2(C)[C@@H]([C@H](C)/C=C/[C@H](C)C(C)C)CC[C@@H]12	x10E3/uL	7.98
CC[C@H]1OC(=O)[C@H](C)[C@@H](O[C@H]2C[C@@](C)(OC)[C@@H](O)[C@H](C)O2)[C@H](C)[C@@H](O[C@@H]2O[C@H](C)C[C@H](N(C)C)[C@H]2O)[C@](C)(O)C[C@@H](C)/C(=N\OCOCCOC)[C@H](C)[C@@H](O)[C@]1(C)O	x10E3/uL	9.83
C[C@]12CCC(=O)C=C1CC[C@@H]1[C@@H]2C(=O)C[C@@]2(C)[C@H]1CC[C@]2(O)C(=O)CO	x10E3/uL	9.83
CC(/C=C1\SC(=S)N(CC(=O)O)C1=O)=C\c1ccccc1	x10E3/uL	13.57
COc1c(C)c2c(c(O)c1C/C=C(\C)CCC(=O)OCCN1CCOCC1)C(=O)OC2 [MYCOPHENOLATE MOFETIL]	x10E3/uL	13.57
CN1CCC[C@@H]1CCO[C@](C)(c1ccccc1)c1ccc(Cl)cc1	x10E3/uL	13.57
CCc1cccc2c3c([nH]c12)C(CC)(CC(=O)O)OCC3 (centres undefined)	x10E3/uL	9.83
CN1C(C(=O)Nc2ccccn2)=C(O)c2ccccc2S1(=O)=O	x10E3/uL	10.64
CC(C)[C@H](N)C(=O)OCCOCn1cnc2c(=O)[nH]c(N)nc21	x10E3/uL	15.25
CC1(C)[C@H]2CC[C@]1(C)C(=O)C2 [(-)-CAMPHOR]	x10E3/uL	16.17
CCC[C@@H]1C[C@@H](C(=O)N[C@@H]([C@H]2O[C@H](SC)[C@H](O)[C@@H](O)[C@H]2O)[C@@H](C)O)N(C)C1	x10E3/uL	13.4
NCC(=O)O	x10E3/uL	11.18
CCc1ccc(C(=O)C(C)CN2CCCCC2)cc1 (centres undefined)	x10E3/uL	13.4
COC(=O)c1ccc(O)cc1	x10E3/uL	12.4
O=C1CCc2cc(OCCCCc3nnnn3C3CCCCC3)ccc2N1	x10E3/uL	9.78
Brc1ccccc1	x10E3/uL	11.93
Cc1c(-c2ccccc2)oc2c(C(=O)OCCN3CCCCC3)cccc2c1=O [FLAVOXATE]	x10E3/uL	15.93

###

species on record: Rattus norvegicus; test: DrugMatrix - Regimen: Daily Repeat; format: toxicity, organism-based, Sprague-Dawley; design: regimen Daily Repeat, gender Male, age 6-8 weeks; conditions: in vivo, po, 0 mg/kg, 120 h, tissue Plasma, route oral GAVAGE, dose level Control, time 5 day, […]
Result type: TOTAL PROTEIN (G/DL)

> print(dat)
                                    molecule    result.type  readout.number
 1       Oc1c(Cl)cc(Cl)cc1Sc1cc(Cl)cc(Cl)c1O  TOTAL PROTEIN            5.63
 2       O=[N+]([O-])c1cc([As](=O)(O)O)ccc1O  TOTAL PROTEIN            6.06
 3  COC1=CC(=O)C[C@@H](C)[C@]12Oc1c(Cl)c(OC)cc(OC)c1C2=O  TOTAL PROTEIN            5.92
 4  COc1ccc2c(c1)c(CC(=O)OCC(=O)O)c(C)n2C(=O)c1ccc(Cl)cc1  TOTAL PROTEIN            5.85
 5  CC(=O)[C@H]1CC[C@H]2[C@@H]3CCC4=CC(=O)CC[C@]4(C)[C@H]3CC[C@]12C  TOTAL PROTEIN               6
 6  COCc1c(C(C)C)nc(C(C)C)c(/C=C/[C@@H](O)C[C@@H](O)CC(=O)O)c1-c1ccc(F)cc1  TOTAL PROTEIN            5.63
 7  CC(C)(Oc1ccc(CCNC(=O)c2ccc(Cl)cc2)cc1)C(=O)O [BEZAFIBRATE]  TOTAL PROTEIN            6.06
 8  CN(C)CCCC1(c2ccc(F)cc2)OCc2cc(C#N)ccc21 (stereo not given)  TOTAL PROTEIN               6
 9  CC1=C(/C=C/C(C)=C/C=C/C(C)=C\C(=O)O)C(C)(C)CCC1  TOTAL PROTEIN            5.85
10   Cn1cnc([N+](=O)[O-])c1Sc1ncnc2nc[nH]c12  TOTAL PROTEIN            5.87
